Counter-ions that a name gives are not always drawn.
A set of compounds tested on UniProt:P15101, with measured pIC50:
Please note pIC50 is a logarithmic value: minus log10 of concentration in mol/L. Answer with that number alone.

Under UniProt:P15101: pIC50 value of Br.Br.NCc1nccn1Cc1ccc(O)cc1 [R = CH2 NH2.2HBr, Y = OH, X = H, n = 1, dihydrobromide] ?
4.46

Under UniProt:P15101: pIC50 value of c1ccc(CNCc2nccn2Cc2ccccc2)cc1 [dihydrochloride] ?
4.00

Under UniProt:P15101: pIC50 value of COc1ccc(CCCn2ccnc2C(=O)O)cc1 [R = CO2 H.HCl, Y = OCH3, X = H, n = 3] ?
4.02

Under UniProt:P15101: pIC50 value of O=C(O)c1nccn1CCCc1ccc(O)cc1 [R = CO2 H.1/2 H2 O, Y = OH, X = H, n = 3, hemihydrate] ?
4.15

---

Where a name gives a salt, the structure may show the parent alone.
A set of molecules tested on dopamine-β-hydroxylase (DBH) (Bos taurus), with measured pIC50:
Please note pIC50 is a logarithmic value: minus log10 of concentration in mol/L. Answer with that number alone.

Under dopamine-β-hydroxylase (DBH) (Bos taurus): pIC50 value of O=C(O)c1nccn1Cc1ccccc1 [R = CO2 H.HCl, Y = H, X = H, n = 1] ?
4.96

Under dopamine-β-hydroxylase (DBH) (Bos taurus): pIC50 value of NCc1nccn1Cc1ccccc1 [R = CH2 NH2.2HCl, Y = H, X = H, n = 1, dihydrochloride] ?
3.62

Under dopamine-β-hydroxylase (DBH) (Bos taurus): pIC50 value of O=C(O)c1nccn1Cc1ccc(O)cc1 [R = CO2 H.HCl, Y = OH, X = H, n = 1, hydrochloride hydrate] ?
4.05

Under dopamine-β-hydroxylase (DBH) (Bos taurus): pIC50 value of COc1ccc(Cn2ccnc2C(=O)O)cc1 [R = CO2 H.HCl, Y = OCH3, X = H, n = 1] ?
4.12
